Molecular target: T1, EsCas13d, nuclease-dead (Eubacterium siraeum, UniProt B0MS50, R295A;H300A;R849A;H854A)
T1 sequence: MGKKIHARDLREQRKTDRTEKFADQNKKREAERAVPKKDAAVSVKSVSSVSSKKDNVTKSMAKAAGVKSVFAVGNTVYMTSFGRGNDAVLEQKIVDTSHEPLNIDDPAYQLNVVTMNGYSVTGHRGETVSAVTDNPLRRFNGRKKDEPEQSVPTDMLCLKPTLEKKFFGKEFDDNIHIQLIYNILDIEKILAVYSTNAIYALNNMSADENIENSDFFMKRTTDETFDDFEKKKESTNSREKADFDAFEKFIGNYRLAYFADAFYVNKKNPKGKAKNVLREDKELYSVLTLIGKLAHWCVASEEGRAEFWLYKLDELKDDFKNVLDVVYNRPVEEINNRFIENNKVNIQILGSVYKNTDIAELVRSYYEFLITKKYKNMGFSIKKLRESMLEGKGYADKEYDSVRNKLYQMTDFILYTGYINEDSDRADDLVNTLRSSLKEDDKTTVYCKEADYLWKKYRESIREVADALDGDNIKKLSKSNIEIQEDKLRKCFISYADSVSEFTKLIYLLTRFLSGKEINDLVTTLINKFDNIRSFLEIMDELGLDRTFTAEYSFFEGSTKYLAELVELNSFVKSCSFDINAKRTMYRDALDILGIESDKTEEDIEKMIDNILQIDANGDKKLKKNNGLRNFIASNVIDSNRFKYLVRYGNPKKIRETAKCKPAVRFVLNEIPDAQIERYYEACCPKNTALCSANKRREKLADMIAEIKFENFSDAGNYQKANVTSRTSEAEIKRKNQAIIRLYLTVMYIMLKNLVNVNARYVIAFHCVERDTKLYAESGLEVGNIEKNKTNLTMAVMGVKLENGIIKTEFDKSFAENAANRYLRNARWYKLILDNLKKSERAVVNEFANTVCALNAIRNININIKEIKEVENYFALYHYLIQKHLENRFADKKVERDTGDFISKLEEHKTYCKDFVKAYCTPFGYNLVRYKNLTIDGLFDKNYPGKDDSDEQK
Experiment: crRNA (strand 1, pre-loaded); Mg2+; 40 mM Tris-HCl pH 7.5, 150 mM NaCl, 6 mM MgCl2, 1 mM DTT, 0.1% Tween-20, 0.2 mg/ml BSA; 25 C; 10 min per concentration, then washed
Conditions: tags: His6-TwinStrep-SUMO cleaved; N-terminal SNAP kept (SNAP-Surface 488); label: 3' end held by stalled T7 RNA polymerase
Value Kind: Kd (nM)
Answer with a number only, understood to be in nM.

// recorded Kd for target 1 MT 5'PFS CAA 3'PFS UAC (mixed) RNA 1: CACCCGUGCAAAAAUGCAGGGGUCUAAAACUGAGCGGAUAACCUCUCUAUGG RNA 2: GGGAAUGGAUCCACAUCUACGAAUUCCAACCAUAGAGAGGUUAUCCGCUCAUACAGAUCGGAAGAGCACACGU : 7.65

Reference source: paper PMC10786891
